Every entry's value here was drawn from patent US20130109581A1.

The reader will find reported 40, 1 ng/ml average reading values listed item by item below.
- target.system: Abeta 1-40 monomer (Homo sapiens, UniProt P05067)
- Construct: Abeta 1-40 monomer capture level; from tissue; host or cells: cerebrospinal fluid (matrix of the assay)
- procedure.details: Globulomer capture assay in CSF (Example 6): Abeta 1-40 noise
- Assay type: binding
- study.conditions: Abeta 1-40 signal (noise), CSF samples
Where no end group is shown, it is not given here.
Write the number in RLUs without appending the unit.

substance	40, 1 ng/ml average reading [RLUs]
link-FKFKKK: FKFKKK peptide reagent with linker to bead at the left end (FIG. 27) (not fully specified (N-terminus); also: attached to bead through link at left end)	198
DFKLNFKF	259.5
AKKKKA	155.5

Then there is this substance:
Query: Field request: 40, 1 ng/ml average reading | item: Nab-Nab-Nab-Nbn-Nab-Nbn [PSR1]
Result: 234.5

###

- target.system: UniProt:P05067
- procedure.details: NMPA with detergent washing after PSR1 pulldown: globulomer detection
- Assay type: binding
The reader will find reported S/N Abeta 42 globulomer-spiked/unspiked values listed item by item below.
Lab note: jot down the number only; don't add units.

As a guide, the following entries are already answered.
compound	readout.number
CCCCCCCCc1ccc(C(=O)NCCC[N+](C)(C)CCCS(=O)(=O)[O-])cc1 [ASB-C8phn]	9.3
CCCCCCCCCCCCCC(=O)NCCC[N+](C)(C)CCCS(=O)(=O)[O-] [ASB-14]	8.7
CCCCCCCC[N+](C)(C)CCCS(=O)(=O)[O-] [ZW3-08]	6.8

Then there is this compound:
Query: Field request: S/N Abeta 42 globulomer-spiked/unspiked | item: CCCCCCCCCCCCCCCC(=O)NCCC[N+](C)(C)CCCS(=O)(=O)[O-] [ASB-16]
Result: 8.2

###

- target.system: Abeta 42 globulomer (Homo sapiens)
- procedure.details: NMPA with detergent washing after PSR1 pulldown: globulomer detection
- Format: binding
outcome.measure: Abeta 42 RLU, 0.5 ng/mL Abeta 42 globulomer, Average (RLU)
Write the number in RLU without appending the unit.

As a guide, the following entries are already answered.
CCCCCCCCCCCCCC(=O)NCCC[N+](C)(C)CCCS(=O)(=O)[O-] 779.3
CCCCCCCC[N+](C)(C)CCCS(=O)(=O)[O-] 668.7
CCCCCCCCCCCCCCCC(=O)NCCC[N+](C)(C)CCCS(=O)(=O)[O-] 788.7

Then there is this compound:
Query: Write down the reported Abeta 42 RLU, 0.5 ng/mL Abeta 42 globulomer, Average of CCCCCCCCc1ccc(C(=O)NCCC[N+](C)(C)CCCS(=O)(=O)[O-])cc1 , test system: Abeta 42 globulomer (Homo sapiens).
Result: 936.3

###

- target.system: Abeta 1-42 globulomer (Homo sapiens, UniProt P05067)
- Construct: beta amyloid (1-42) was monomerized with incubation in hexafluoroisopropanol
- procedure.details: Globulomer capture assay in CSF (Example 6)
- Format: binding
- study.conditions: Abeta 1-42 globulomer spiked at 1 ng/mL into CSF
Where no end group is shown, it is not given here.
The reader will find reported 42, 1 ng/ml average reading values listed item by item below.
Write the number in RLUs without appending the unit.

As a guide, the following entries are already answered.
substance	42, 1 ng/ml average reading, RLUs
link-FKFKKK: FKFKKK peptide reagent with linker to bead at the left end (FIG. 27) (not fully specified (N-terminus); also: attached to bead through link at left end)	808
AKKKKK	442
AKKKKA	322.5

Query: Field request: 42, 1 ng/ml average reading | item: FKFSLFSG
Result: 3078.5

Query: Field request: 42, 1 ng/ml average reading | item: AAKKAA
Result: 159.5

Query: Field request: 42, 1 ng/ml average reading | item: Nab-Nab-Nab-Nbn-Nab-Nbn [PSR1]
Result: 970.5
